# Tested on: Mycobacterium tuberculosis
# Protocol: Antimicrobial activity against Mycobacterium bovis BCG by resazurine microtiter assay
# Assay type: functional
# Condition Description: variant bovis BCG, Urine
Where a SMILES comes first, the peptide text is derived from it. Bridges are numbered along the chain shown (N, C = ends). [ ]: non-standard residue; d: D form. The star is where a group is joined. Ileψ(thiazoline)Cys = CC[C@H](C)[C@H](N)C1=N[C@H](C(=O)*)CS1; dOrn = NCCC[C@@H](N)C(=O)O
Please use MET for MIC under 4 µg/mL and NOT MET for everything else, ties included.

Molecule	Label
CO[C@H]1/C=C/O[C@@]2(C)Oc3c(C)c(O)c4c(O)c(c(/C=N/N5CCN(C)CC5)c(O)c4c3C2=O)NC(=O)/C(C)=C\C=C\[C@H](C)[C@H](O)[C@@H](C)[C@@H](O)[C@@H](C)[C@H](OC(C)=O)[C@@H]1C [RIFAMPIN]	MET
CO[C@@H]1[C@@H](OC(N)=O)[C@@H](O)[C@H](Oc2ccc3c(O)c(NC(=O)c4ccc(O)c(CC=C(C)C)c4)c(=O)oc3c2C)OC1(C)C [NOVOBIOCIN]	NOT MET
COC(=O)[C@H]1[C@H]2C[C@@H]3c4[nH]c5cc(OC)ccc5c4CCN3C[C@H]2C[C@@H](OC(=O)c2cc(OC)c(OC)c(OC)c2)[C@@H]1OC [RESERPINE]	MET
CC(C)[C@@H]1NC(=O)[C@H](C)OC(=O)[C@@H](C(C)C)NC(=O)[C@@H](C(C)C)OC(=O)[C@H](C(C)C)NC(=O)[C@H](C)OC(=O)[C@@H](C(C)C)NC(=O)[C@@H](C(C)C)OC(=O)[C@H](C(C)C)NC(=O)[C@H](C)OC(=O)[C@@H](C(C)C)NC(=O)[C@@H](C(C)C)OC1=O [VALINOMYCIN]	MET
CC[C@H](C)[C@H](N)C1=N[C@H](C(=O)N[C@@H](CC(C)C)C(=O)N[C@H](CCC(=O)O)C(=O)N[C@H](C(=O)N[C@H]2CCCCNC(=O)[C@H](CC(N)=O)NC(=O)[C@@H](CC(=O)O)NC(=O)[C@H](Cc3cnc[nH]3)NC(=O)[C@@H](Cc3ccccc3)NC(=O)[C@H]([C@@H](C)CC)NC(=O)[C@@H](CCCN)NC2=O)[C@@H](C)CC)CS1 [BACITRACIN] ({Ileψ(thiazoline)Cys}-L[dE]IK[dOrn]I[dF]H[dD]N; lactam 4-C)	NOT MET
O=[N+]([O-])c1cn2c(n1)OC[C@@H](OCc1ccc(OC(F)(F)F)cc1)C2 [PRETOMANID]	MET

###

Catalogue of MIC readings, one per entry.
# Tested on: Mycobacterium tuberculosis
# Protocol: Antimicrobial activity against Mycobacterium bovis BCG by resazurine microtiter assay
# Format: functional
# Condition Description: variant bovis BCG, Urine
Outcome Measure: MIC (mg/L)

Compound	Value Unit	Numeric Result
N#CC(C#N)=NNc1cccc(Cl)c1 [CARBONYL CYANIDE M-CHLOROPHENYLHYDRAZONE]	mg/L	4
CC[C@@H](CO)NCCN[C@@H](CC)CO	mg/L	4
CN[C@H](CC(C)C)C(=O)N[C@H]1C(=O)N[C@@H](CC(N)=O)C(=O)N[C@H]2C(=O)N[C@H]3C(=O)N[C@H](C(=O)N[C@H](C(=O)O)c4cc(O)cc(O)c4-c4cc3ccc4O)[C@H](O)c3ccc(c(Cl)c3)Oc3cc2cc(c3O[C@@H]2O[C@H](CO)[C@@H](O)[C@H](O)[C@H]2O[C@H]2C[C@](C)(N)[C@H](O)[C@H](C)O2)Oc2ccc(cc2Cl)[C@H]1O	mg/L	4
